- Test system: wheat
- testMethodNotes: Test B pre/postemergence wheat
- Type: in vivo, Triticum aestivum
- protocolConditions: Preemergence, Rate 250 g/ha; scale of 0 to 10 where 0 is no effect and 10 is complete control
Some compounds, each annotated with its measured Plant response rating, Wheat.
Give the figure only, with no unit attached.

Examples from the recorded data:
>>> val("Cc1cc(C)c(-n2c(=O)on(C(=O)N(c3ccc(Cl)cc3)C(C)C)c2=O)c(C)c1 [Compound 61]")
0
>>> val("COc1ccc(-n2c(=O)on(C(=O)N(c3ccc(F)cc3F)C(C)C)c2=O)c(OC)c1 [Compound 32]")
0
>>> val("CC(C)N(C(=O)n1oc(=O)n(-c2cnn(C)c2Cl)c1=O)c1ccc(F)cc1 [Compound 97]")
0
>>> val("COc1ccccc1Cn1c(=O)on(C(=O)N(c2ccccc2)C(C)C)c1=O [Compound 104]")
0
>>> val("Cc1cccc(C(C)C)c1-n1c(=O)on(C(=O)N(c2ccc(F)cc2)C(C)C)c1=O [Compound 65]")
0
>>> val("CCN(CC)C(=O)n1oc(=O)n(-c2c(C)cccc2C)c1=O [Compound 2]")
0

Field: next compound
Asked: // returns reported Plant response rating, Wheat for input CCN(C(=O)n1oc(=O)n(-c2ccccc2OC)c1=O)C1CCCCC1 [Compound 29]
Given back: 0

====

// B. signalgrass plant response rating lookup, one value per entry
- Tested on: surinam grass
- testMethodNotes: Test B pre/postemergence surinam grass
- Assay type: in vivo, Brachiaria decumbens
- protocolConditions: Postemergence, Rate 250 g/ha; scale 0 to 10, 0 no effect, 10 complete control
Response field accepts a number only; no unit should be typed.

>>> val("CC(C)N(C(=O)n1oc(=O)n(CC(=O)N(C)C)c1=O)c1ccc(F)cc1F [Compound 440]")
2
>>> val("CCN(C(=O)n1oc(=O)n(-c2ccccc2OC)c1=O)C1CCCCC1 [Compound 29]")
0
>>> val("CC(=O)C(C)n1c(=O)on(C(=O)N(c2ccc(F)cc2F)C(C)C)c1=O (stereo not shown) [Compound 517]")
6
>>> val("CC(C)N(C(=O)n1oc(=O)n(CC2=NCCO2)c1=O)c1ccccc1 [Compound 495]")
0
>>> val("CC(C)N(C(=O)n1oc(=O)n(C2CCCCC2)c1=O)c1ccccc1 [Compound 112]")
0

Asked: What value of B. signalgrass plant response rating has been recorded for this entry: CC(C)N(C(=O)n1oc(=O)n(-c2cccc3c2CCCC3)c1=O)c1ccc(F)cc1 [Compound 90]
Given back: 0

Asked: Tell me the measured B. signalgrass plant response rating of CC(Cl)=CCn1c(=O)on(C(=O)N(c2ccc(F)cc2F)C(C)C)c1=O [Compound 514] , please.
Given back: 3

Asked: Fill in: B. signalgrass plant response rating of CC(C)N(C(=O)n1oc(=O)n(-c2ccc(Cl)cc2Cl)c1=O)c1ccc(F)cc1 [Compound 7] is ___
Given back: 0

Asked: For CC(C)N(C(=O)n1oc(=O)n(-c2c(Cl)cccc2Cl)c1=O)c1ccc(F)cc1 [Compound 19] , what is its reported B. signalgrass plant response rating?
Given back: 0

====

Entries and their Plant response rating, Rape values follow.
- System: rape
- testMethodNotes: Test B pre/postemergence rape
- Type: in vivo, Brassica napus
- protocolConditions: Postemergence, Rate 125 g/ha; scale of 0 to 10 where 0 is no effect and 10 is complete control
Hey, just send me the number, nothing else.

>>> val("CC(C)N(C(=O)n1oc(=O)n(CC(=O)C(F)(F)F)c1=O)c1ccc(F)cc1F")
0
>>> val("CCCCn1c(=O)on(C(=O)N(c2ccc(F)cc2F)C(C)C)c1=O")
5
>>> val("C=C(Cn1c(=O)on(C(=O)N(c2ccccc2)C(C)C)c1=O)c1ccc(F)cc1")
2
>>> val("COC(=O)C(C)n1c(=O)on(C(=O)N(c2ccc(Cl)cc2)C(C)C)c1=O (centres unmarked)")
0

Let us examine a further case.
Asked: Fill in the blank: the reported Plant response rating, Rape of CC(C)N(C(=O)n1oc(=O)n(CCC(F)(F)F)c1=O)c1ccccc1 is ____.
Given back: 4

====

- Test system: Italian ryegrass
- testMethodNotes: Test E Italian ryegrass
- Format: in vivo, Lolium multiflorum
- protocolConditions: Preemergence, Rate 250 g/ha; 0 to 100 scale
measuredMetric: Plant response rating, I. Ryegrass
Enter a number only.

>>> val("COc1ccccc1-n1c(=O)on(C(=O)N(c2ccc(F)cc2)C(C)C)c1=O [Compound 30]")
20
>>> val("CC(C)N(C(=O)n1oc(=O)n(-c2ccccc2)c1=O)c1ccc(F)cc1 [Compound 38]")
20
>>> val("Cc1ccc(N(C(=O)n2oc(=O)n(-c3ccccc3C)c2=O)C(C)C)cc1 [Compound 40]")
30

Next up:
Asked: Need Plant response rating, I. Ryegrass of CC(C)N(C(=O)n1oc(=O)n(C2CCCCC2)c1=O)c1ccccc1 [Compound 112] , thanks.
Given back: 20

====

Reported Redroot pigweed plant response rating values are given for each entry in this list.
- System: pigweed
- testMethodNotes: Test B pre/postemergence pigweed
- Format: in vivo, Amaranthus retroflexus
- protocolConditions: Rate 500 g/ha, Postemergence; scale 0 to 10, 0 no effect, 10 complete control
Format: numeric value only, no unit, no commentary.

Use these answered entries as a reference point.
>>> val("CC(C)N(C(=O)n1oc(=O)n(CC(C)(C)C)c1=O)c1ccc(F)cc1")
3
>>> val("CC(C)N(C(=O)n1oc(=O)n([C@H](C)c2ccccc2)c1=O)c1ccc(F)cc1F")
5
>>> val("Cc1ccccc1-n1c(=O)on(C(=O)N(c2ccc(F)c(F)c2)C(C)C)c1=O")
0
>>> val("Cc1ccccc1-n1c(=O)on(C(=O)N(c2ccc3c(c2)CCC3)C(C)C)c1=O")
4
>>> val("CCN(Cc1ccccc1)C(=O)n1oc(=O)n(-c2c(C)cccc2C)c1=O")
0
>>> val("Cc1cccc(C(C)C)c1-n1c(=O)on(C(=O)N(c2ccc(F)cc2)C(C)C)c1=O")
0
>>> val("CC(C)N(C(=O)n1oc(=O)n(C2CC2)c1=O)c1ccc(F)cc1")
8
>>> val("CC(C)N(C(=O)n1oc(=O)n(C2CCCC2)c1=O)c1ccccc1")
7
>>> val("CCOC(=O)C(C)N(C(=O)n1oc(=O)n(CC)c1=O)c1ccc(F)cc1 (stereo not shown)")
0

Asked: # Redroot pigweed plant response rating lookup, item CC(C)N(C(=O)n1oc(=O)n(-c2cccnc2)c1=O)c1ccccc1
Given back: 0

====

- Test system: wild oat
- testMethodNotes: Test B pre/postemergence wild oat
- Assay type: in vivo, Avena fatua
- protocolConditions: Preemergence, Rate 250 g/ha; scale 0 to 10, 0 is no effect, 10 is complete control
- Method: […] At the same time, these crop and weed species were also treated with postemergence applications of test chemicals formulated in the same manner. […] Treated plants and controls were maintained in a greenhouse for twelve to sixteen days, after which all species were compared to controls and visually evaluated. […]
Reported Wild oats plant response rating by item:
Hey, just send me the number, nothing else.

>>> val("CC(C)N(C(=O)n1oc(=O)n([C@@H](C)c2ccccc2)c1=O)c1ccccc1 [Compound 168]")
1

Asked: Given CC(C)N(Cc1ccccc1)C(=O)n1oc(=O)n(C(C)C)c1=O [Compound 165] , state its recorded Wild oats plant response rating.
Given back: 4

Asked: Record request: Wild oats plant response rating value, item CC(C)N(C(=O)n1oc(=O)n(CCS(C)(=O)=O)c1=O)c1ccc(F)cc1 [Compound 453]
Given back: 2

Asked: // lookup Wild oats plant response rating for CC(C)N(C(=O)n1oc(=O)n(N(C)C)c1=O)c1ccc(F)cc1 [Compound 170]
Given back: 10

Asked: Any idea what its Wild oats plant response rating is? The compound is CC(C)N(C(=O)n1oc(=O)n(C(CF)CF)c1=O)c1ccc(Cl)cc1 [Compound 468]
Given back: 3

====

- Test system: purple nutsedge
- testMethodNotes: Test B pre/postemergence purple nutsedge
- Assay type: in vivo, Cyperus rotundus
- protocolConditions: Preemergence, Rate 125 g/ha; scale of 0 to 10 where 0 is no effect and 10 is complete control
measuredMetric: Nutsedge plant response rating
Provide a numeric answer; units are not to be included.

Sample answers from the record:
>>> val("CCCCn1c(=O)on(C(=O)N(c2ccc(F)cc2F)C(C)C)c1=O")
0
>>> val("COCCn1c(=O)on(C(=O)N(c2ccccc2)C(C)C)c1=O")
4
>>> val("CCOP(=O)(OCC)C(C)n1c(=O)on(C(=O)N(c2ccc(F)cc2)C(C)C)c1=O (centres unmarked)")
0
>>> val("CC(C)N(C(=O)n1oc(=O)n(CC(=O)N(C)C)c1=O)c1ccc(F)cc1")
0

Asked: Consider the molecule C#CC(C=C(C)C)n1c(=O)on(C(=O)N(c2ccccc2)C(C)C)c1=O (centres unmarked) and give its measured Nutsedge plant response rating.
Given back: 0
